Would you kindly list Kd for each of these binders?
# Measured On: T1, murine EphA2-Fc fusion protein (mouse, UniProt Q03145 26-538)
# T1 construct: ephrin receptor tyrosine kinase class A2 (EphA2), mouse, extracellular domain as Fc chimera; Biotinylated in-house (EZ-Link Sulfo-NHS-LC-Biotin) for the CIS display selections and the screening ELISA; also called mEphA2-Fc; mEphA2; source: bought: R&D Systems
# Assay Name: ELISA; end-point titration ELISA in 96-well plates coated with hEphA2-Fc or mEphA2-Fc; purified Abdurins titrated; detected by anti-FLAG M2-HRP; the constant is printed as 'Affinity (M)'
# Experimental Context: both partners purified
Give the value in nM but do not write nM after it.

The recorded Kd for Abdurin B6, affinity matured EphA2 binder (designed binder, Abdurin scaffold (human IgG1 CH2 domain), stretch before loop BC; loop BC of matured clone B6, in place of Val266-Pro271 (VSHEDP) of the scaffold; Abdurin scaffold (human IgG1 CH2 domain), stretch between loops BC and DE; loop DE from the parental clone E10, in place of Glu293-Thr299 (EEQYNST); Abdurin scaffold (human IgG1 CH2 domain), stretch after loop DE; source: E. coli Shuffle cells, …) GPSVFLFPPKPKDTLMISRTPEVTCVVVDPYLHDDEVKFNWYVDGVEVHNAKTKPRQYDPLYGYRVVSVLTVLHQDWLNGKEYKCKVSNKALPAPIEKTISKAK is 3.5

The recorded Kd for Abdurin B11, affinity matured EphA2 binder (designed binder, Abdurin scaffold (human IgG1 CH2 domain), stretch before loop BC; loop BC of matured clone B11, in place of Val266-Pro271 (VSHEDP) of the scaffold; Abdurin scaffold (human IgG1 CH2 domain), stretch between loops BC and DE; loop DE from the parental clone E10, in place of Glu293-Thr299 (EEQYNST); Abdurin scaffold (human IgG1 CH2 domain), stretch after loop DE; Not the phage loop DE clone of the …) GPSVFLFPPKPKDTLMISRTPEVTCVVVDYRADYLEVKFNWYVDGVEVHNAKTKPRQYDPLYGYRVVSVLTVLHQDWLNGKEYKCKVSNKALPAPIEKTISKAK is 9.89

The recorded Kd for Abdurin G7, affinity matured EphA2 binder (designed binder, Abdurin scaffold (human IgG1 CH2 domain), stretch before loop BC; loop BC of matured clone G7, in place of Val266-Pro271 (VSHEDP) of the scaffold; Abdurin scaffold (human IgG1 CH2 domain), stretch between loops BC and DE; loop DE from the parental clone E10, in place of Glu293-Thr299 (EEQYNST); Abdurin scaffold (human IgG1 CH2 domain), stretch after loop DE; source: E. coli Shuffle cells, …) GPSVFLFPPKPKDTLMISRTPEVTCVVVDPHLGVDEVKFNWYVDGVEVHNAKTKPRQYDPLYGYRVVSVLTVLHQDWLNGKEYKCKVSNKALPAPIEKTISKAK is 3.18

The recorded Kd for Abdurin D2, affinity matured EphA2 binder (designed binder, Abdurin scaffold (human IgG1 CH2 domain), stretch before loop BC; loop BC of matured clone D2, in place of Val266-Pro271 (VSHEDP) of the scaffold; Abdurin scaffold (human IgG1 CH2 domain), stretch between loops BC and DE; loop DE from the parental clone E10, in place of Glu293-Thr299 (EEQYNST); Abdurin scaffold (human IgG1 CH2 domain), stretch after loop DE; Not the phage loop DE clone of the …) GPSVFLFPPKPKDTLMISRTPEVTCVVVDYEAAALEVKFNWYVDGVEVHNAKTKPRQYDPLYGYRVVSVLTVLHQDWLNGKEYKCKVSNKALPAPIEKTISKAK is 1.97
